# Tested on: waterhemp
# test.description: Test C pre-/postemergence herbicide test
# Type: in vivo, Amaranthus rudis
# experimental.parameters: Preemergence, 31 g ai/ha; scale 0 to 100, 0 is no effect and 100 is complete control
endpoint: Waterhemp plant response rating

[[record]]
molecule = "CN1CC(c2ccc(C(F)(F)F)cc2)C(C(=O)Nc2ccccc2F)C1=O (stereo not drawn) [Compound 304]"
assayed_target = "waterhemp"
endpoint = "Waterhemp plant response rating"
measured_number = 75

[[record]]
molecule = "O=C1NCC(c2ccc(C(F)(F)F)cc2)C1C(=O)Nc1ccccc1Cl (stereo not drawn) [Compound 233]"
assayed_target = "waterhemp"
endpoint = "Waterhemp plant response rating"
measured_number = 95

[[record]]
molecule = "O=C1NCC(c2cccc(C(F)(F)F)c2)C1C(=O)Nc1ccc(F)cc1F (racemic) [Compound 207]"
assayed_target = "waterhemp"
endpoint = "Waterhemp plant response rating"
measured_number = 0

[[record]]
molecule = "CN1CC(c2ccc(F)c(F)c2)C(C(=O)Nc2ccccc2F)C1=O (stereo not drawn) [Compound 302]"
assayed_target = "waterhemp"
endpoint = "Waterhemp plant response rating"
measured_number = 30

[[record]]
molecule = "O=C1NCC(c2ccc(C(F)(F)F)c(F)c2)C1C(=O)Nc1ccccc1F (racemic) [Compound 246]"
assayed_target = "waterhemp"
endpoint = "Waterhemp plant response rating"
measured_number = 100

[[record]]
molecule = "O=C1NCC(c2cccc(Cl)c2)C1C(=O)Nc1cccc(F)c1F (racemic) [Compound 275]"
assayed_target = "waterhemp"
endpoint = "Waterhemp plant response rating"
measured_number = 0


Origin of the recorded values: patent US10294202B2
